Reported inhibition at 16 µg/mL is given for each of the following compounds.
- Test system: PC-3
- Test: MTT solid tumor cell proliferation inhibition, PC-3
- Format: cell-based, human
- Condition Details: Homo sapiens; PC-3, 16 μg/mL compound, 72 h; read-out: IR (inhibition rate)
Give a bare numeral; the unit % is implied.

Look over these answered cases.
CC1(C)CC[C@]2(NC(=O)C3CC3)CC[C@]3(C)C(=CC[C@@H]4[C@@]5(C)CC[C@H](O)C(C)(C)[C@@H]5CC[C@]43C)[C@@H]2C1 :: 56.6
CC1(C)CC[C@]2(C(=O)O)CC[C@]3(C)C(=CC[C@@H]4[C@@]5(C)CC[C@H](O)C(C)(C)[C@@H]5CC[C@]43C)[C@@H]2C1 :: 29.1
CC1(C)CC[C@]2(NC(=O)c3cccs3)CC[C@]3(C)C(=CC[C@@H]4[C@@]5(C)CC[C@H](O)C(C)(C)[C@@H]5CC[C@]43C)[C@@H]2C1 :: 45.1
CC1(C)CC[C@]2(NC(=O)c3cccnc3Cl)CC[C@]3(C)C(=CC[C@@H]4[C@@]5(C)CC[C@H](O)C(C)(C)[C@@H]5CC[C@]43C)[C@@H]2C1 :: 48.1
CC1(C)CC[C@]2(NC(=O)c3ccccc3)CC[C@]3(C)C(=CC[C@@H]4[C@@]5(C)CC[C@H](O)C(C)(C)[C@@H]5CC[C@]43C)[C@@H]2C1 :: 45.7
COc1cccc(C(=O)N[C@]23CCC(C)(C)C[C@H]2C2=CC[C@@H]4[C@@]5(C)CC[C@H](O)C(C)(C)[C@@H]5CC[C@@]4(C)[C@]2(C)CC3)c1 :: 24.5

We next turn to a different compound, shown below.
Fill in: inhibition at 16 µg/mL of `CC1(C)CC[C@]2(NC(=O)c3ccco3)CC[C@]3(C)C(=CC[C@@H]4[C@@]5(C)CC[C@H](O)C(C)(C)[C@@H]5CC[C@]43C)[C@@H]2C1` is ___ 47.2

====

- Test system: A549
- Test: MTT solid tumor cell proliferation inhibition, A549
- Type: cell-based, human
- Condition Details: Homo sapiens; A549, 72 h, MTT
Result Type: IC50

CC1(C)CC[C@]2(NC(=O)c3cccs3)CC[C@]3(C)C(=CC[C@@H]4[C@@]5(C)CC[C@H](O)C(C)(C)[C@@H]5CC[C@]43C)[C@@H]2C1 :: > 16 µg/mL
CC1(C)CC[C@]2(NC(=O)c3ccco3)CC[C@]3(C)C(=CC[C@@H]4[C@@]5(C)CC[C@H](O)C(C)(C)[C@@H]5CC[C@]43C)[C@@H]2C1 :: 15 µg/mL
COc1cccc(C(=O)N[C@]23CCC(C)(C)C[C@H]2C2=CC[C@@H]4[C@@]5(C)CC[C@H](O)C(C)(C)[C@@H]5CC[C@@]4(C)[C@]2(C)CC3)c1 :: > 16 µg/mL

// moving on: another record for IC50
# get_value(readout= IC50, system= A549) for `CC1(C)CC[C@]2(NC(=O)c3cccnc3Cl)CC[C@]3(C)C(=CC[C@@H]4[C@@]5(C)CC[C@H](O)C(C)(C)[C@@H]5CC[C@]43C)[C@@H]2C1` > 16 µg/mL

====

- Test system: MGC803
- Test: MTT solid tumor cell proliferation inhibition, MGC803
- Type: cell-based, human
- Condition Details: Homo sapiens, MGC-803; MGC803, 72 h, MTT
Reported IC50 by item:
Dear colleague, please return just the value in µg/mL, with no unit written.

Example entries begin here.
CC1(C)CC[C@]2(NC(=O)C3CC3)CC[C@]3(C)C(=CC[C@@H]4[C@@]5(C)CC[C@H](O)C(C)(C)[C@@H]5CC[C@]43C)[C@@H]2C1 :: 14.4
CC1(C)CC[C@]2(NC(=O)c3ccco3)CC[C@]3(C)C(=CC[C@@H]4[C@@]5(C)CC[C@H](O)C(C)(C)[C@@H]5CC[C@]43C)[C@@H]2C1 :: 16

So what IC50 did `CC1(C)CC[C@]2(NC(=O)c3cccs3)CC[C@]3(C)C(=CC[C@@H]4[C@@]5(C)CC[C@H](O)C(C)(C)[C@@H]5CC[C@]43C)[C@@H]2C1` get with MGC803? 16

Now this one: `CC1(C)CC[C@]2(NC(=O)c3cccnc3Cl)CC[C@]3(C)C(=CC[C@@H]4[C@@]5(C)CC[C@H](O)C(C)(C)[C@@H]5CC[C@]43C)[C@@H]2C1` 13.6
